All figures here come from patent US9113629B2.

System: Key Broadleaf Weed and Crop Species
Assay remarks: Post-emergent Test II herbicidal activity (Table 5)
Type: in vivo
Protocol conditions: post-emergence, 336 h; BRSNN: oilseed-rape, canola (Brassica napus); application rate 70 g ai/ha; 14 days after application; read-out: Visual Growth Reduction (%) 14 Days After Application, BRSNN
Below: a set of entries, each annotated with reported pest or weed control at 70 g/ha.

Please review the entries below; each comes with its answer.
Compound | pest or weed control at 70 g/ha
Nc1c(F)c(-c2ccc(Br)cc2F)nc(C(=O)O)c1Cl [Compound 163] | 95 to 100%
COc1c(N)nc(-c2ccc(C(F)(F)F)c(F)c2F)nc1C(=O)O [Compound 76] | 85 to 94%

Attention now shifts to the item below.
Query: Requested field: pest or weed control at 70 g/ha. Item: Nc1cc(-c2ccc(I)c(F)c2F)nc(C(=O)O)c1Cl [Compound 38]
Response: 95 to 100%

* * *

System: Key Grass and Sedge Weeds as well as Grass Crops
Assay remarks: Post-emergent Test II herbicidal activity (Table 6)
Assay type: in vivo
Protocol conditions: post-emergence, 336 h, ZEAMX: maize, corn (Zea mays), application rate 140 g ai/ha, read-out: Visual Growth Reduction (%) 14 Days After Application, ZEAMX
Below: a set of entries, each annotated with reported pest or weed control at 140 g/ha.

Please review the entries below; each comes with its answer.
Compound structure string | Measured result
COC(=O)c1nc(-c2ccc(Br)c(F)c2)c(Cl)c(N)c1Cl | 60 to 74%
COC(=O)c1nc(-c2cc(F)c(Br)cc2F)cc(N)c1Cl | 85 to 94%

Attention now shifts to the item below.
Query: Requested field: pest or weed control at 140 g/ha. Item: `COC(=O)c1nc(-c2cc(F)c(C(F)(F)F)cc2F)nc(N)c1OC`
Response: 30 to 44%

* * *

Below: a set of entries, each annotated with reported pest or weed control at 70 g/ha.
Test system: Key Broadleaf Weed and Crop Species
Assay remarks: Post-emergent Test II herbicidal activity (Table 5)
Format: in vivo
Protocol conditions: post-emergence, 336 h; CHEAL: lambsquarters (Chenopodium album); 70 g ai/ha; post-emergent; 14 days after application; read-out: Visual Growth Reduction (%) 14 Days After Application CHEAL

Molecule | pest or weed control at 70 g/ha
COC(=O)c1nc(-c2cc(F)c(I)cc2F)c(Br)c(N)c1Cl [Compound 100] | 95 to 100%

Query: Requested field: pest or weed control at 70 g/ha. Item: COc1c(N)nc(-c2ccc(I)c(F)c2)nc1C(=O)O [Compound 37]
Response: 95 to 100%

Query: Requested field: pest or weed control at 70 g/ha. Item: Nc1cc(-c2c(F)cc(Br)c(F)c2F)nc(C(=O)O)c1Cl [Compound 162]
Response: 95 to 100%

* * *

System: Key Grass and Sedge Weeds as well as Grass Crops
Assay remarks: Post-emergent Test II herbicidal activity (Table 6)
Assay type: in vivo
Protocol conditions: post-emergence, 336 h, ZEAMX: maize, corn (Zea mays), application rate 70 g ai/ha, read-out: Visual Growth Reduction (%) 14 Days After Application, ZEAMX
Readout name: pest or weed control at 70 g/ha

Please review the entries below; each comes with its answer.
Compound structure string | Readout name | Measured result
Nc1cc(-c2cc(F)c(Br)cc2F)nc(C(=O)O)c1Cl | pest or weed control at 70 g/ha | 85 to 94%
C=Cc1c(N)nc(-c2ccc(C#N)cc2F)nc1C(=O)O | pest or weed control at 70 g/ha | 0 to 29%
Nc1cc(-c2c(F)cc(Br)c(F)c2F)nc(C(=O)O)c1Cl | pest or weed control at 70 g/ha | 60 to 74%
COC(=O)c1nc(-c2ccc(I)c(F)c2F)cc(N)c1Cl | pest or weed control at 70 g/ha | 60 to 74%
COc1c(N)nc(-c2cc(F)c(Br)cc2F)nc1C(=O)O | pest or weed control at 70 g/ha | 60 to 74%

Query: Requested field: pest or weed control at 70 g/ha. Item: `COC(=O)c1nc(-c2ccc(Br)c(F)c2)nc(N)c1OC`
Response: 60 to 74%

Query: Requested field: pest or weed control at 70 g/ha. Item: `Nc1cc(-c2cc(F)c(C(F)F)cc2F)nc(C(=O)O)c1Cl`
Response: 0 to 29%

Query: Requested field: pest or weed control at 70 g/ha. Item: `Nc1cc(-c2ccc(Br)c(F)c2)nc(C(=O)O)c1Cl`
Response: 45 to 59%

Query: Requested field: pest or weed control at 70 g/ha. Item: `COC(=O)c1nc(-c2cc(F)c(Br)cc2F)nc(N)c1OC`
Response: 75 to 84%

Query: Requested field: pest or weed control at 70 g/ha. Item: `COC(=O)c1nc(-c2ccc(C(F)(F)F)c(F)c2)cc(N)c1Cl`
Response: 0 to 29%
